These data points were gathered from PubChem BioAssay.

Please respond with reported composite z-score for every item in the list.
- measurement notes: COS7 lysate on small-molecule microarray, probe aHis, 635 nm (AID 1123);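 also: z-score combines 667nm fluorescence intensity with signal-to-noise per printed compound spot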
- measurement setup: COS7 cell lysate, fluorescence, higher = more signal
Give your answer as a number; write no unit.

# molecule CCOC(=O)NN=C1C[C@@H](O)[C@@H](O)[C@@H]2[C@@H]3C(=O)N(C4CCCCC4)C(=O)[C@@H]3CC[C@@H]12 ; its composite z-score = -0.636

For reference, reported composite z-score for CCCCCCc1nc(CCCc2cc3c(c(CCCCCC)n2)[Si](C(C)C)(C(C)C)O[C@H]3c2ccccc2)cc2c1[Si](C(C)C)(C(C)C)O[C@H]2c1ccccc1 stands at -0.0088

molecule C=CC[C@@H]1C=C[C@H](ON=C(C)CCN2CCc3nc(CC)c(CC)cc3C2)[C@@H](CO)O1 , composite z-score observed: 0.226

// composite z-score value for CCCC[C@H]1OB(O)C[C@H]2C1=C(C)C[C@H]1C(=O)N(C)C(=O)[C@H]12 : 0.326

Record Cc1ccc(C2CC=C(C(=O)O)CN2S(=O)(=O)c2ccc(C)cc2)cc1 (stereo not drawn) , field composite z-score: 0.93

# composite z-score of CO[C@@H]1COC(=O)[C@H](C)NC(=O)[C@@H](C)COC(=O)CCC[C@H]1C = 0.421

For record Cc1ccc(S(=O)(=O)N[C@@H]2COC(=O)[C@H](C)COC(=O)CC=C[C@H]2C)cc1 the listed composite z-score is -0.32

Short answer for COC(=O)CC=C[C@@H](C)[C@@H](C=NO[C@H](C)c1cn([C@@H]2COC[C@H]2O)nn1)OC : composite z-score was 0.214

----------
Please respond with reported composite z-score for every item in the list.
- measurement notes: small-molecule binders of probe aNOTCH3, primary screen, biochemical, small-molecule microarray, 635/667 nm fluorescence (AID 1120);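 also: probe is a biotin-tagged antibody raised against NOTCH3 rather than NOTCH3 protein; score merges spot fluorescence near 667 nm with spot signal to noise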
- measurement setup: higher = more signal
Lab note: record just the number, no unit beside it.

The reported composite z-score of the molecule [N-]=[N+]=NCc1ccccc1[C@@H]1OC(c2ccc(OCCCO)cc2)=N[C@]1(Cc1ccccc1)C(=O)N1CCOCC1 was 0.387

CCCC[C@H]1OB(O)C[C@H]2C1=C(C)C[C@H]1C(=O)N(C)C(=O)[C@H]12 has a reported composite z-score of 0.16

The molecule listed as CO[C@@H]1COC(=O)CC=C[C@@H](C)[C@@H]2C=C[C@H](O)[C@@H](COC(=O)[C@H](C)NC(=O)CC=C[C@H]1C)O2 has a reported composite z-score of -0.0328

The measured composite z-score associated with CC(=O)OC[C@H]1O[C@H](CCON=C(C)CCN2CCc3nc(-c4ccccc4)c(-c4ccccc4)cc3C2)C=C[C@@H]1OC(C)=O reads 0.146

----------
- System: Fibrinogen (Alexa647-labelled)
- measurement notes: fibrinogen binders on compound microarrays, profiling panel, artefact control for SMM control-protein annotation, biochemical, small-molecule microarray, 635/667 nm fluorescence (AID 1131);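 also: z-score merges 667 nm fluorescence with per-spot signal-to-noise over triplicate slides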
- measurement setup: fibrinogen-A647 binding fluorescence, higher = more signal
assay metric: composite z-score
Keep it simple and answer with nothing but the number.

GET /value?item= COCC1=C2[C@@H](CCc3ccccc3)OB(O)C[C@@H]2n2c(=O)n(-c3ccccc3)c(=O)n2C1 &field=composite z-score returns -0.434

Data point: COC(=O)[C@]1(CO)N=C(c2ccc(OCCCO)cc2)O[C@@H]1c1ccccc1N=[N+]=[N-] ; composite z-score = 0.633

The compound identified as COC(=O)[C@@]1(Cc2ccccc2)[C@H]2c3cc(C(=O)N4CCCC4)n(Cc4ccccn4)c3C[C@H]2CN1C(=O)c1ccccc1 registered its composite z-score at 0.412

CO[C@@H]1COC(=O)CC=C[C@@H](C)[C@@H]2C=C[C@H](O)[C@@H](COC(=O)[C@H](C)NC(=O)CC=C[C@H]1C)O2 yielded composite z-score of -0.734

# composite z-score (compound: CN1C(=O)C2C=CC(C(O)c3ccc(Br)cc3)N(N(c3ccccc3)c3ccccc3)C2C1=O (stereo not given) ) is 0.312

Record C[C@@H](c1ccccc1)N1C(=O)[C@H]2[C@H]3[C@H](O)[C@H](O)CC(=NOC[C@@H](O)COCc4ccco4)[C@@H]3CC[C@H]2C1=O . Reported composite z-score: 0.448

Reported composite z-score for O=C1c2ccccc2[C@@]2(Cc3ccccc3N(C3CC3)C2=O)[C@H](c2ccc(CO)cc2)N1Cc1ccccc1C(F)(F)F was -1.41

For reference, reported composite z-score for CCOC(=O)NN=C1C[C@@H](O)[C@@H](O)[C@@H]2[C@@H]3C(=O)N(C4CCCCC4)C(=O)[C@@H]3CC[C@@H]12 stands at 0.5

composite z-score for CC(C)NC(=O)[C@@H]1c2ccccc2C(=O)N(CC23CC4CC(CC(C4)C2)C3)[C@H]1c1ccc(CO)cc1 is 0.973

Documented composite z-score of CCCCCN1CC=CC23O[C@@H]4C=CCOC(=O)[C@@H]4[C@H]2C(=O)N(CCCCCCO)[C@@H]3C1=O (stereo not given in full) : -1.04

The recorded composite z-score for COC(=O)[C@@H]1CC[C@H](C)[C@@H](c2ccc(C)cc2)N1C(=O)c1ccc(C=NOC[C@@H](O)COCc2ccco2)cc1 is -1.68

Per the records, this compound ( CCCNC(=O)OC[C@H]1O[C@H](CCON=CC[C@@H]2C=C[C@H](OC(C)=O)[C@@H](COC(C)=O)O2)C=C[C@@H]1Oc1ccc(OC)cc1 ) has composite z-score equal to 0.733

Recorded composite z-score (compound COC(=O)[C@H](C)NC(=O)CCC1CC(OC(=O)NCCc2ccc(F)cc2)CC2(CCCC(COC(=O)NCC(c3ccccc3)c3ccccc3)O2)O1 (stereo not given in full) ): 0.834

Lab note: measured composite z-score of CN(C)CCCNC(=O)[C@@H]1c2ccccc2C(=O)N(Cc2ccccc2)[C@H]1c1ccc(CO)cc1 was -0.355

response.value for CCN1C(=O)[C@H]2[C@H]3[C@H](O)[C@H](O)CC(=NOCC=C(C)CCC=C(C)C)[C@H]3CC[C@H]2C1=O (field: composite z-score) = 0.0065

----------
- study system: Pro-neuregulin-1, membrane-bound isoform (Homo sapiens)
- measurement notes: NRG1 binders on small-molecule microarrays, primary screen, psychiatric disease protein project, biochemical, small-molecule microarray, fluorescence 635/667 (AID 1075);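 also: score combines 667 nm spot fluorescence with signal to noise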
- measurement setup: NRG1 binding, 635 nm fluorescence, higher = more signal
Answer each item with its documented composite z-score.
Write the number on its own, no unit after it.

The molecule COCCCNC(=O)[C@@]1(C)c2ccccc2C(=O)N(Cc2ccc(OC(F)(F)F)cc2)[C@H]1c1ccc(CO)cc1 , when measured on Pro-neuregulin-1, membrane-bound isoform (Homo sapiens), yielded composite z-score of 0.785

Measured composite z-score for this entry C[C@@H]1C=CCC(=O)OC[C@H](C)C(=O)N2CCC[C@H]2C(=O)OC1 on Pro-neuregulin-1, membrane-bound isoform (Homo sapiens): -0.824

Readout composite z-score for O=C1O[C@@H](c2ccccc2)[C@@H](c2ccccc2)N2[C@@H](c3ccc(OCCO)cc3)[C@]3(C(=O)Nc4ccccc43)[C@@H](C(=O)N3CCN(c4ncccn4)CC3)[C@H]12 , test system Pro-neuregulin-1, membrane-bound isoform (Homo sapiens), was 1.27

Bench note, Pro-neuregulin-1, membrane-bound isoform (Homo sapiens): entry c1ccc(C2NCCc3c2[nH]c2ccccc32)cc1 (stereo not given) , its composite z-score = 0.464

Recorded composite z-score for C[C@@H]1CC[C@H]2C(=O)O[C@H](COc3ccc(C(C)(C)C)cc3)CN2[C@H]1c1ccc(Br)cc1 on Pro-neuregulin-1, membrane-bound isoform (Homo sapiens) was 0.536

----------
So I've got a bunch of molecules here, and I need their z-score values.
- measurement notes: modulators of S6 phosphorylation in cells, primary screen, cell-based, A549, cytoblot, luminescence, serum-stimulated (AID 1158);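 also: serum-stimulated A549 lung adenocarcinoma cells; signal is phosphorylated S6 detected by cytoblot immunostaining with HRP secondary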
- measurement setup: A549 phospho-S6 cytoblot, 5 h, higher = more signal
Could you keep your reply to the number by itself?

Memo: COC(=O)CC=C[C@@H](C)[C@@H](C=NO[C@H](C)c1cn([C@@H]2COC[C@H]2O)nn1)OC , reported z-score: 0.502

// CCN1C(=O)[C@H]2[C@H]3[C@H](O)C=CC(=O)[C@@H]3CC[C@H]2C1=O : z-score value = 0.176

z-score for COCCOC(=O)N1C(=O)[C@@]2(c3ccccc31)[C@H](C(N)=O)[C@H]1C(=O)O[C@H](c3ccccc3)[C@H](c3ccccc3)N1[C@@H]2c1ccccc1OCCO is 0.404

# z-score (molecule: NC(=O)NCC#Cc1ccc2c(c1)[C@]1(C(=O)N2)[C@H](c2ccc(O)cc2)N2[C@H](c3ccccc3)[C@H](c3ccccc3)OC(=O)[C@H]2[C@@H]1C(=O)N1CCCCCCC1 ) is 0.0459

# z-score (molecule: C[C@@H]1C=CCC(=O)OC[C@H](C)C(=O)N2CCC[C@H]2C(=O)OC1 ) is -0.39

Item: O=C1C[C@@H](O)[C@@H](O)[C@@H]2[C@@H]3C(=O)N(Cc4ccc5c(c4)OCO5)C(=O)[C@@H]3CC[C@@H]12 | z-score: -0.352

GET /value?item= COc1ccccc1CN1C(=O)c2ccccc2[C@@H](C(=O)NCC(F)(F)F)[C@@H]1c1ccc(CO)cc1 &field=z-score returns -0.189

Looking up COC(=O)[C@H](C)NC(=O)CCC1CC(OC(=O)NCc2ccc3c(c2)OCO3)CC2(CCCC(COC(=O)NCCOc3ccccc3)O2)O1 (stereo partly drawn) , I found its z-score recorded as 1.48

GET /value?item= C=CCOC(=O)[C@H]1[C@@H]2C(=O)O[C@@H](c3ccccc3)[C@@H](c3ccccc3)N2[C@@H](c2ccc(OCCOC(=O)[C@H]3C[C@H]4C(=O)N[C@@H](Cc5ccccc5)C(=O)N4[C@H]3c3ccc(O)cc3)cc2)[C@]12C(=O)Nc1ccccc12 &field=z-score returns 0.338

Per the records, this molecule ( COC(=O)CC=C[C@H](C)[C@H](CO)NS(=O)(=O)c1ccc(C)cc1 ) has z-score equal to -0.497

Measured z-score, CCOC(=O)[C@H](CC(C)C)NC(=O)CCC1CC(OC(=O)NCc2cccc3ccccc23)CC2(CCCC(COC(=O)NCCN3CCOCC3)O2)O1 (stereo partly drawn) : 0.0369

z-score for CC[C@@H](c1ccccc1)n1c(=O)n2n(c1=O)[C@H]1[C@H](O)[C@@H]3O[C@@H]3C(=NOCC=C(C)CCC=C(C)C)[C@H]1CC2 is -0.45

Reported z-score for C[C@@H](c1ccccc1)N1C(=O)[C@H]2[C@H]3[C@H](O)C=CC(=O)[C@@H]3CC[C@H]2C1=O was 0.674

Record COCCOC(=O)N1C(=O)[C@@]2(c3cc(C#Cc4ccc(OC)cc4)ccc31)[C@H](C(=O)N1CCN(c3ncccn3)CC1)[C@H]1C(=O)O[C@H](c3ccccc3)[C@H](c3ccccc3)N1[C@@H]2c1ccc(OCCO)cc1 , field z-score: -0.21

Record CCOC(=O)NN=C1C[C@@H](O)[C@@H](O)[C@@H]2[C@@H]3C(=O)N(C[C@@H]4CCCO4)C(=O)[C@@H]3CC[C@@H]12 , field z-score: -0.0861

// recorded z-score for C[C@H](c1ccccc1)N1C(=O)[C@H]2[C@@H]3C(=CC[C@H]2C1=O)C(=O)[C@H]1O[C@H]1[C@H]3O : -0.836

Form field z-score, entry C#CCCCON=C1C[C@@H](O)[C@@H](O)[C@@H]2[C@@H]3C(=O)N([C@@H](C)c4ccccc4)C(=O)[C@@H]3CC[C@H]12 : -0.235

Item: CC(C)NC(=O)[C@@H]1c2ccccc2C(=O)N(CC23CC4CC(CC(C4)C2)C3)[C@H]1c1ccc(CO)cc1 | z-score: 1.31

The molecule C#C[C@@H]1Oc2ccccc2S(=O)(=O)N2CCC[C@H]12 showed z-score equal to -0.222

Form field z-score, entry CC(C)[C@@H](OCc1ccccc1)[C@H](C)C=NOC[C@@H](C)[C@H](OCc1ccccc1)C(C)C : -0.591

Lookup result for COCCCNC(=O)[C@@]1(Sc2ccc(C)cc2)CC(=O)N(Cc2ccccc2)[C@@H]1c1ccc(CO)cc1I ; measured z-score: 0.505

// z-score value for COc1ccc([Si](C)(C)[C@H]2[C@H](CCO)O[C@@]3(C(=O)N(Cc4cccc(NC(=O)[C@H](C)O)c4)c4ccccc43)[C@@H]2C)cc1 : 0.993

Quick note, z-score for C=C(COC)/C(=C/C[C@H](OC(=O)c1ccncc1)c1ccc(CO)o1)c1cc(C(=O)OC)ccc1OC landed at -0.0278

The reported value for C[C@@H](c1ccccc1)N1C(=O)[C@H]2[C@H]3[C@H](O)[C@H](O)CC(=NNC(=O)OCc4ccccc4)[C@H]3CC[C@H]2C1=O in terms of z-score is 0.296

Just so you know, measured z-score for COCCCNC(=O)[C@@]1(C)c2ccccc2C(=O)N(Cc2ccc(OC(F)(F)F)cc2)[C@H]1c1ccc(CO)cc1 came out at -0.459

According to the records, this molecule CC1(C)OCC(C(O)C2=CCCCC2=O)CO1 (stereo not drawn) displays z-score of 0.315

Per the records, this molecule ( O=C1[C@H]2[C@H]3[C@H](O)[C@H](O)CC(=NO[C@@H]4O[C@H](CO)[C@@H](O)[C@H](O)[C@H]4O)[C@H]3CC[C@H]2C(=O)N1Cc1ccccc1 ) has z-score equal to 0.705

The value of z-score measured for the molecule CC(C)NC(=O)[C@@]1(c2ccc([N+](=O)[O-])cc2)CC(=O)N(CC23CC4CC(CC(C4)C2)C3)[C@@H]1c1ccc(CO)cc1I turned out to be 0.018
